The molecules listed here are annotated with their T/C.
Tested on: CD2F1 mice, L1210 leukemia ip, survival T/C
Assay overview: NCI In Vivo Anticancer Drug Screen. Data for tumor model L1210 Leukemia (intraperitoneal) in CD2F1 (CDF1) mice
Condition label: endpoint: mean survival time; dose: 200.0 mg/kg/injection; schedule: Q04DX003 (ip); vehicle: saline with Tween-80; higher = longer survival
Toxic doses and inconclusive results are not listed.
Measurement type: T/C

Molecule | Measurement type | Result
c1ccc(CSC2=NCCS2)cc1 | T/C | 98 % of control
Nc1ccc2c(S(=O)(=O)O)ccc(O)c2c1 | T/C | 96 % of control
C(=N\N=C\c1ccco1)/c1ccco1 | T/C | 101 % of control
CS/C([S-])=N/N=C/c1ccccn1.[Cl][Pt+] | T/C | 100 % of control
CNS(=O)(=O)c1ccc2c(c1)[nH]c(=S)n2C | T/C | 92 % of control
c1ccc(-c2ncnc3ccccc23)cc1 | T/C | 101 % of control
N#Cc1cccc2c(S(=O)(=O)O)cccc12 | T/C | 90 % of control
Cc1c(Cl)cccc1NC(=O)Oc1ccc(Cl)cc1Cl | T/C | 97 % of control
O=C1C(c2ccccc2)=C2C(=C1c1ccccc1)c1cccc3cccc2c13 | T/C | 90 % of control
CC(C)CC(NC(=O)c1ccccc1)C(=O)O (stereo unspecified) | T/C | 95 % of control
CCCCCCCCCCCCCCCCOc1ccc(S(=O)(=O)NC(C)(C)C)cc1[N+](=O)[O-] | T/C | 96 % of control
ClC1(Cl)C2(Cl)C3(Cl)C4(Cl)C(Cl)(Cl)C5(Cl)C3(Cl)C1(Cl)C5(Cl)C24Cl (stereo unspecified) | T/C | 94 % of control
OC1C2CCC1C(N1CCOCC1)CC2 (stereo unspecified) | T/C | 102 % of control
CCOC(=O)c1c[nH]c2ccc([N+](=O)[O-])cc2c1=O | T/C | 91 % of control
Oc1ccccc1C=Nc1ccc(N=Cc2ccccc2O)cc1 | T/C | 91 % of control
COC(=O)C1=C(NC(=O)Nc2ccc(OC)cc2)OC(C)(C)C1c1ccc(Cl)cc1 (stereo unspecified) | T/C | 87 % of control
C[S+](C)CC(=O)c1ccccc1O | T/C | 99 % of control
N#CCCC(C#N)(CCC#N)C(N)=O | T/C | 98 % of control
C[n+]1ccc(CCC(=O)Nc2ccccc2)cc1 | T/C | 100 % of control
Cc1ccc(S(=O)(=O)OCC(OS(=O)(=O)c2ccc(C)cc2)C2OC3OC(C)(C)OC3C2OS(=O)(=O)c2ccc(C)cc2)cc1 (stereo unspecified) | T/C | 87 % of control
CCCCOB=O | T/C | 98 % of control
CN(C)S(=O)(=O)C=C(c1ccccc1)c1ccccc1 | T/C | 96 % of control
C=CCOc1ccc(OC)cc1 | T/C | 97 % of control
CC(NC(=O)CNC(=O)OCc1ccccc1)C(=O)O (stereo unspecified) | T/C | 96 % of control
Brc1ccc2c(c1)CCCC2 | T/C | 103 % of control
CC(C)OC(=O)CC#N | T/C | 105 % of control

---

Tested on: CD2F1 mice, L1210 leukemia ip, survival T/C
Assay overview: NCI In Vivo Anticancer Drug Screen. Data for tumor model L1210 Leukemia (intraperitoneal) in CD2F1 (CDF1) mice
Condition label: endpoint: mean survival time; dose: 100.0 mg/kg/injection; schedule: Q04DX002 (ip); vehicle: saline with Tween-80; higher = longer survival
Inconclusive results and toxic doses are left out.
The compounds listed here are annotated with their T/C.
Measurement type: T/C

Compound | Result
CCCCCCCCCCCC[N+]1([O-])CCOCC1 | 108 % of control
O=C1OCc2ccccc21 | 96 % of control
CC(CCOc1ccc(Cl)cc1Cl)C(=O)O (stereo not drawn) | 104 % of control
CCCCCCCCCCCCCCCC(=O)Nc1c(C)cccc1C | 100 % of control
O=S(=O)([O-])O.O=S(O)S(=O)O.[Co+3].[NH2-].[NH2-].[NH2-].[NH2-].[NH2-] | 97 % of control
CCC(CNCCCC(=O)O)(C(=O)O)C(=O)O | 102 % of control
O=C(CCN1C(=O)c2ccccc2C1=O)c1ccccc1 | 95 % of control
CSc1nc(C)cc(=O)[nH]1 | 94 % of control
Cc1ccc(Cl)cc1NC(=O)OCC(C)C | 90 % of control
CCOc1cc(C)cc(C(=O)O)c1 | 97 % of control
CC(C)(C)C1CCC(S(=O)c2ccccc2)CC1 (stereo not drawn) | 90 % of control
Cc1cc(=O)c(C#N)c(-c2ccccc2)[nH]1 | 96 % of control
CC(C(=O)O)C1CCC2(C)CCC(=O)C(C)(Cl)C2(O)C1=O (stereo not drawn) | 96 % of control

---

System: CD2F1 mice, L1210 leukemia ip, survival T/C
Assay overview: NCI In Vivo Anticancer Drug Screen. Data for tumor model L1210 Leukemia (intraperitoneal) in CD2F1 (CDF1) mice
Condition label: endpoint: mean survival time; dose: 100.0 mg/kg/injection; schedule: Q04DX003 (ip); vehicle: saline; higher = longer survival
Protocol: The antitumor activity of compounds was measured in mice bearing transplantable tumors. Survival or tumor size were measured and the results are expressed as the measurement made in the treated group (T) divided by the measurement made in the vehicle treated control group (C). The tumor model used in this assay is L1210 Leukemia (intraperitoneal) in CD2F1 (CDF1) mice
Inconclusive results and toxic doses are left out. Non-standard residues stand in square brackets, D forms with d. Residues, ends and D or L forms follow the SMILES beside them. ξ: configuration not given here. *: point of attachment. Cbz = O=C(OCc1ccccc1)*; ξP = O=C(O)C1CCCN1

Molecule | T/C
c1ccc2[nH]c(CCCCc3nc4ccccc4[nH]3)nc2c1 | 104 % of control
O=S(=O)(O)CN(CCN(CS(=O)(=O)O)CS(=O)(=O)O)CS(=O)(=O)O | 109 % of control
O=C(O)C1C2C/C(=N\O)C(C2)C1C(=O)O (stereo not given) | 101 % of control
NC(Cc1ccc([N+](=O)[O-])cc1)C(=O)O (stereo not given) | 97 % of control
CC(C)(CNC1=NCCO1)NC1=NCCO1 | 104 % of control
O=C([O-])CC[n+]1ccn(CCC(=O)O)c1 | 109 % of control
COS(=O)(=O)O | 96 % of control
COc1cc(CO)ccc1Oc1ccc(C)cc1 | 100 % of control
C=CC1CC[N-]CC1.C=CC1CC[N-]CC1.C=CC1CC[N-]CC1.[Cl][Cr]([Cl])[Cl] | 102 % of control
NC(=O)C1=C(CCCCl)c2ccccc2C1=O | 115 % of control
S=C(S)N1CCCC1 | 95 % of control
COC(=O)CC(OC)OC | 103 % of control
CCCOC(=O)C1CCCCC1C(=O)OCCC (stereo not given) | 98 % of control
O=P(O)(O)OCC(O)CCl (stereo not given) | 100 % of control
CCC(CC(=O)O)c1ccccc1 (stereo not given) | 100 % of control
COc1ccc(C(C)C(O)c2ccccc2)cc1 (stereo not given) | 103 % of control
CCCCCCCC(=O)N1CCCN(C(=O)CCCCCCC)C1 | 97 % of control
O=C(OCCOCCOC(=O)N1CCOCC1)N1CCOCC1 | 100 % of control
CC(C(=O)c1ccccc1)N(C)C (stereo not given) | 100 % of control
O=C(CNC(=O)OCc1ccccc1)NCC(=O)N1CCCC1C(=O)O (stereo not drawn) (Cbz-Gly-Gly-[ξP]-OH) | 98 % of control
C[Si](OCc1ccc(-c2ccccc2)cc1)c1ccccc1 | 96 % of control
COC(=O)CC(=O)C1(C)CC1 | 90 % of control
O=C1C(CO)=C[C@@H](O)[C@H]2O[C@@H]12 | 100 % of control
COP(=O)(O)c1ccccc1 (tested in a mixture with another compound) | 103 % of control
O=C(O)CSCSCC(=O)O | 97 % of control

---

Test system: CD2F1 mice, L1210 leukemia ip, survival T/C
Assay overview: NCI In Vivo Anticancer Drug Screen. Data for tumor model L1210 Leukemia (intraperitoneal) in CD2F1 (CDF1) mice
Condition label: endpoint: mean survival time; dose: 12.5 mg/kg/injection; schedule: Q04DX003 (ip); vehicle: saline; higher = longer survival
Toxic doses and inconclusive results are not listed.

Compound | T/C
O=C(CCl)c1ccc(O)c(O)c1 | 92 % of control
CN(C)c1ccc(C(O)C(N)=O)cc1 (centres undefined) | 95 % of control
C[N+](C)(C)CCOC(=O)CCC(=O)OCC[N+](C)(C)C | 100 % of control
Oc1ccccc1C=NCC[N-]CCN=Cc1ccccc1O.[Co] | 107 % of control

Numbers sourced from PubChem BioAssay AID256.
